- assayOverview: log P by HPLC on reversed-phase column (EEC Directive 79/831 Annex V.A8)
- Type: physicochemical
- conditionNotes: log P
resultType: chromatographic logP

- Cn1nc(C(F)F)c(C(=O)NC2CCCC(CCC(C)(C)C)C2)c1F (stereo not shown): 4.8

* * *

- assayOverview: log P by HPLC on reversed-phase column (EEC Directive 79/831 Annex V.A8)
- Type: physicochemical
Recorded logP by entry
resultType: logP

- Cn1nc(C(F)F)c(C(=O)NCCOc2ccc(Cl)cc2)c1F: 2.78
- Cn1nc(C(F)F)c(C(=O)NCCOc2cc(Cl)cc(Cl)c2)c1Cl: 3.55
- Cn1nc(C(F)F)c(C(=O)N(C2CC2)C2CCCCC2C2=CCCCC2)c1Cl (stereo not drawn): 5.17
- Cn1nc(C(F)F)c(C(=O)NCCOc2ccc(Oc3ccccc3)cc2)c1F: 3.42
- Cn1nc(C(F)F)c(C(=O)NCCCc2cc3ccccc3o2)c1F: 2.90
- Cn1nc(C(F)F)c(C(=O)NCCOc2ccc(C(F)(F)F)cc2)c1Cl: 3.17
- Cc1cc(C)nc(CCC(C)NC(=O)c2c(C(F)F)nn(C)c2Cl)c1 (stereo not drawn): 1.81
- Cn1nc(C(F)F)c(C(=O)N(C[Si](C)(C)Cc2cccc(Cl)c2)C2CC2)c1Cl: 4.59
- CN(CC(=O)OCc1ccccc1)C(=O)c1c(C(F)F)nn(C)c1F: 2.44
- Cn1nc(C(F)F)c(C(=O)N(CCOc2ccc(-c3ccccc3)cc2)C2CC2)c1Cl: 4.03
- CC(C)N(CCOc1c(Cl)cc(Cl)cc1Cl)C(=O)c1c(C(F)F)nn(C)c1F: 4.51
- CC#CC1(NC(=O)c2c(C(F)F)nn(C)c2Cl)CCCCC1: 3.11
- Cn1nc(C(F)F)c(C(=O)N(CCCc2cccs2)C2CC2)c1F: 3.04
- CCC(COc1cc(Cl)cc(Cl)c1)NC(=O)c1c(C(F)F)nn(C)c1F (racemic): 4.04
- CC(N(C(=O)c1c(C(F)F)nn(C)c1F)C1CC1)C(C)(C)Cc1ccc(Cl)cc1Cl (stereo not drawn): 5.14
- Cn1nc(C(F)F)c(C(=O)NCCOc2c(F)cccc2F)c1F: 2.44
- CCCN(CCOc1ccc(C(=O)OCC)cc1)C(=O)c1c(C(F)F)nn(C)c1F: 3.31

* * *

- assayOverview: log P by HPLC on reversed-phase column (EEC Directive 79/831 Annex V.A8)
- Type: physicochemical
Quick rule: logP of at least 3 means T, below that means F.

- CN(CCCc1ccccc1)C(=O)c1c(C(F)F)nn(C)c1F: F
- CC(C)N(CCOc1ccc(Cl)cc1)C(=O)c1c(C(F)F)nn(C)c1Cl: T
- Cn1nc(C(F)F)c(C(=O)NCC#Cc2ccco2)c1F: F
- CN(CC(NC(=O)c1c(C(F)F)nn(C)c1Cl)C1CC1)c1ccccc1 (stereo not drawn): T
- Cn1nc(C(F)F)c(C(=O)N(CCOc2ccc(Cl)cc2)C2CCC2)c1F: T
- COCCCCNC(=O)c1c(C(F)F)nn(C)c1F: F
- CC(C)C(C(=O)OCc1ccccc1)N(C)C(=O)c1c(C(F)F)nn(C)c1Cl (stereo not drawn): T
- CC(CCc1cc(Cl)ccc1Cl)NC(=O)c1c(C(F)F)nn(C)c1Cl (stereo not drawn): T
- CC(CSc1ccc(Cl)cc1Cl)NC(=O)c1c(C(F)F)nn(C)c1Cl (stereo not drawn): T
